inhibition at 6.25 µg/mL: recorded values
- Tested on: Mycobacterium tuberculosis H37Rv (ATCC 27294)
- TEST: Primary screen, Microplate Alamar Blue Assay (MABA), percent inhibition
- Format: cell-based
- ASSAY_CONTEXT: Mycobacterium tuberculosis, Table 5; Alamar assay, primary screening at 6.25 μg/ml; read-out: % Inhib

INSERT INTO measurements (compound, attribute_measured, obs_value) VALUES
  ('CC(=O)O[C@H]1CC2C(C3CC[C@H](C(C)CCC(=O)O)[C@]31C)[C@H](OC(C)=O)C[C@@H]1CC3(CC[C@]21C)OOC1(CCCCC1C)OO3 (some centres unmarked)', 'inhibition at 6.25 µg/mL', '0%'),
  ('CC(=O)O[C@H]1CC2C(C3CC[C@H](C(C)CCC(N)=O)[C@]31C)[C@H](OC(C)=O)C[C@@H]1CC3(CC[C@]21C)OOC1(CCCCC1)OO3 (some centres unmarked)', 'inhibition at 6.25 µg/mL', '99%');

Input line: Name the reported inhibition at 6.25 µg/mL value associated with the compound CCC1CCC2(CC1)OOC1(CC[C@]3(C)C4C[C@H](OC(C)=O)[C@@]5(C)C(CC[C@@H]5C(C)CCC(=O)OC)C4[C@H](OC(C)=O)C[C@@H]3C1)OO2 (single isomer, unassigned) [8i/1B13a]
Output line: 62%

Input line: Name the reported inhibition at 6.25 µg/mL value associated with the compound CCC1CCC2(CC1)OOC1(CC[C@]3(C)C4C[C@H](OC(C)=O)[C@@]5(C)C(CC[C@@H]5C(C)CCC(N)=O)C4[C@H](OC(C)=O)C[C@@H]3C1)OO2 (single isomer, unassigned)
Output line: 100%

Input line: Name the reported inhibition at 6.25 µg/mL value associated with the compound CNC(=O)CCC(C)[C@H]1CCC2C3C(C[C@H](OC(C)=O)[C@@]21C)[C@@]1(C)CCC2(C[C@H]1C[C@H]3OC(C)=O)OOC1(CCC(C)CC1)OO2 (some centres unmarked)
Output line: 98%
